biological target: human PD-1 / PD-L1-Ig binding on Jurkat cell line over-expressing human PD-1 (Jurkat-PD-1) (Homo sapiens, UniProt Q15116); construct: expressed in transfected cells; host or cells: Jurkat; assay: Jurkat-PD-1 Cell Binding High-Content Screening Assay (CBA); assay type: cell-based; conditions: Jurkat-PD-1 cells, PE-labeled PD-L1-Ig 20 nM final; read-out: Jurkat HPD1_PDL1 IC50
Sequence (Q15116 25-288): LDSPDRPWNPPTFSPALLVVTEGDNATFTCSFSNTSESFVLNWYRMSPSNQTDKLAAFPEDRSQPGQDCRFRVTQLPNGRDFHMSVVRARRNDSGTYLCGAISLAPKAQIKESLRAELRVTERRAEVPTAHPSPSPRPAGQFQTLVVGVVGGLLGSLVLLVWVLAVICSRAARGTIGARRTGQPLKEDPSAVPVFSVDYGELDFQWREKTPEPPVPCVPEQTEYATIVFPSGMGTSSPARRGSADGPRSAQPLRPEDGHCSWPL
ENDPOINT_LABEL: pIC50
pIC50 (log units): -log10 of the concentration in mol/L.

Query: Which value of pIC50 has been reported for CCC[C@@H]1NC(=O)[C@H](Cc2ccc(-c3ccccc3)cc2)NC(=O)[C@H](C(C)C)NC(=O)[C@H](Cc2c[nH]c3ccccc23)NC(=O)[C@H](CC(=O)O)NC(=O)[C@H](Cc2ccc(C(=O)O)cc2)NC(=O)[C@H](Cc2ccncc2)NC(=O)CSC[C@@H](C(=O)N[C@@H](C)C(N)=O)NC(=O)[C@H]([C@@H](C)O)NC(=O)[C@H](C(C)C)NC(=O)[C@H](CC2CCCCC2)NC(=O)[C@H](Cc2cnc[nH]2)NC(=O)[C@@H](CC(C)C)NC(=O)[C@H](CCCN)NC1=O in the records?
Result: 7.57

----------
target: human PD-1 / PD-L1-Ig binding on Jurkat cell line over-expressing human PD-1 (Jurkat-PD-1) (Homo sapiens); construct: expressed in transfected cells; host or cells: Jurkat; test: Jurkat-PD-1 Cell Binding High-Content Screening Assay (CBA); type: cell-based; details: Jurkat-PD-1 cells, PE-labeled PD-L1-Ig 20 nM final; read-out: Jurkat HPD1_PDL1 IC50
ENDPOINT_LABEL: pIC50
pIC50 (log units): -log10 of the concentration in mol/L.

Query: Which value of pIC50 has been reported for Cc1cccc(C[C@@H]2NC(=O)[C@H](CC(=O)O)NC(=O)[C@H](Cc3ccc(C(=O)O)cc3)NC(=O)[C@H](Cc3ccc(OCC(=O)O)cc3)NC(=O)CSC[C@@H](C(=O)N[C@@H](C)C(N)=O)NC(=O)[C@H]([C@@H](C)O)NC(=O)[C@H](C(C)C)NC(=O)[C@H](CC3CCCCC3)NC(=O)[C@H](CCN)NC(=O)[C@@H](CC(C)C)NC(=O)[C@H](CCCN)NC(=O)[C@H](CCC(=O)O)NC(=O)[C@H](Cc3ccc(-c4ccccc4)cc3)NC(=O)[C@H](C(C)C)NC2=O)c1 in the records?
Result: 7.63

----------
# maps each entry to its pIC50
molecular target: human PD-1 / PD-L1-Ig binding on Jurkat cell line over-expressing human PD-1 (Jurkat-PD-1) (Homo sapiens); construct: expressed in transfected cells; host or cells: Jurkat; experiment: Jurkat-PD-1 Cell Binding High-Content Screening Assay (CBA); format: cell-based; details: Jurkat-PD-1 cells, PE-labeled PD-L1-Ig 20 nM final; read-out: Jurkat HPD1_PDL1 IC50
Where a SMILES comes first, the peptide text is derived from it. Bridges are numbered along the chain shown (N, C = ends). [ ]: non-standard residue; d: D form. Bip = N[C@@H](Cc1ccc(-c2ccccc2)cc1)C(=O)O; 4Pal = N[C@@H](Cc1ccncc1)C(=O)O; Orn = NCCC[C@H](N)C(=O)O; Dab = NCC[C@H](N)C(=O)O; Dap = NC[C@H](N)C(=O)O
pIC50 (log units): -log10 of the concentration in mol/L.

MOLECULE	pIC50
CC[C@H](C)[C@@H]1NC(=O)[C@H](Cc2ccc(-c3ccccc3)cc2)NC(=O)[C@H](C(C)C)NC(=O)[C@H](Cc2c[nH]c3ccccc23)NC(=O)[C@H](CC(=O)O)NC(=O)[C@H](Cc2ccc(O)cc2)NC(=O)[C@H](CC(N)=O)NC(=O)CSC[C@@H](C(=O)N[C@@H](C)C(N)=O)NC(=O)[C@H](CO)NC(=O)[C@H](C(C)C)NC(=O)[C@H](CC(C)C)NC(=O)[C@H](CCN)NC(=O)[C@@H](CC(C)C)NC(=O)[C@H](CCN)NC1=O [Compound 1120] ({CH2CO}-NYDWV[Bip]I[Dab][dL][Dab]LVSCA-NH2; thioether N-14)	7.94
CC(C)C[C@@H]1NC(=O)[C@H](Cc2c[nH]c3ccccc23)NC(=O)[C@H](CC(=O)O)NC(=O)[C@H](Cc2ccncc2)NC(=O)[C@H](CN)NC(=O)CSC[C@@H](C(=O)NCC(N)=O)NC(=O)[C@H](CO)NC(=O)[C@H](C(C)C)NC(=O)[C@H](CC(C)C)NC(=O)[C@H](CC(N)=O)NC(=O)[C@@H](CC(C)C)NC(=O)[C@H](CCCN)NC(=O)[C@H](C(C)C)NC(=O)[C@H](Cc2ccc(-c3ccccc3)cc2)NC1=O [Compound 1285] ({CH2CO}-[Dap][4Pal]DWL[Bip]V[Orn][dL]NLVSCG-NH2; thioether N-14)	7.37

Query: Which value of pIC50 has been reported for CC(C)C[C@H]1NC(=O)[C@H](CCCN)NC(=O)[C@H](CN)NC(=O)[C@H](Cc2ccc(-c3ccccc3)cc2)NC(=O)[C@H](C(C)C)NC(=O)[C@H](Cc2c[nH]c3ccccc23)NC(=O)[C@H](CC(=O)O)NC(=O)[C@H](Cc2ccc(O)cc2)NC(=O)[C@H](CC(N)=O)NC(=O)CSC[C@@H](C(=O)N[C@@H](C)C(N)=O)NC(=O)[C@H]([C@@H](C)O)NC(=O)[C@H](C(C)C)NC(=O)[C@H](CC2CCCCC2)NC(=O)[C@H](CCN)NC1=O in the records?
Result: 7.77

Query: Same for CC(C)C[C@@H]1NC(=O)[C@H](Cc2c[nH]c3ccccc23)NC(=O)[C@H](CC(=O)O)NC(=O)[C@H](Cc2ccncc2)NC(=O)[C@H](CN)NC(=O)CSC[C@@H](C(=O)NCC(N)=O)NC(=O)[C@H](CO)NC(=O)[C@H](C(C)C)NC(=O)[C@H](CC(C)C)NC(=O)[C@H](CC(N)=O)NC(=O)[C@@H](CC(C)C)NC(=O)[C@H](CN)NC(=O)[C@H](C(C)C)NC(=O)[C@H](Cc2ccc(-c3ccccc3)cc2)NC1=O [Compound 1277] ({CH2CO}-[Dap][4Pal]DWL[Bip]V[Dap][dL]NLVSCG-NH2; thioether N-14)
Result: 8.07

Origin of values: patent US20250163104A1
